# Test system: S. aureus (MRSA) ATCC 33591
# Assay type: cell-based, Staphylococcus aureus
# assayContext: ATCC 33591
Non-standard residues stand in square brackets, D forms with d. Residues, ends and D or L forms follow the SMILES beside them.
recordedEndpoint: S. aureus (MRSA) MIC (µg/mL)
One number for each entry, in µg/mL.

Qu. Name the recorded S. aureus (MRSA) MIC of the item CC(C)C[C@H]1NC(=O)[C@H](Cc2c[nH]cn2)NC(=O)[C@@H](CCCCN)NC(=O)[C@H](Cc2c[nH]c3ccccc23)NC(=O)[C@@H](CC(C)C)NC(=O)[C@H](Cc2c[nH]c3ccccc23)NC1=O [SEQ ID NO:27, cyclo-(D-Lys-His-D-Leu-Trp-D-Leu-Trp)] (cyclo(H[dL]W[dL]W[dK])) in your answer.
Ans. 10

These data points were gathered from patent US20050107289A1.
